The reported measurements were obtained from patent US11702422B2.

testSystem: IL-17A(FLAG-Tagged): IL-17RA(His-Tagged) (Homo sapiens, UniProt Q16552, K93Q)
Sequence (Q16552 with tags, fused parts or gaps K93Q): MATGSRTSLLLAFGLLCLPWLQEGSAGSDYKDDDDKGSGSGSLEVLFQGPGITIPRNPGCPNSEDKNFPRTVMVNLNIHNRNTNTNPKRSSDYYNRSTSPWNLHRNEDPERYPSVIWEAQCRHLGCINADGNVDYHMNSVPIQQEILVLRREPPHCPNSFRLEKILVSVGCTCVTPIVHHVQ
measurementNotes: IL-17A(FLAG-Tagged): IL-17RA(His-Tagged) Binding Disruption Eu-HTRF Assay
experimentalConditions: IL-17A/IL-17RA binding disruption, simple average if tested more than once
Structures can show the parent of a compound that is named as a salt.
measuredAttribute: IC50 (nM)

Completed entries (count: 5):
| compound | testSystem | unitText | IC50 |
| --- | --- | --- | --- |
| O=C(CCC(F)(F)F)N[C@@H](c1cnn2cc([C@@H](NC(=O)[C@H]3C(F)(F)C34CCC4)C3CCC(F)(F)CC3)nc2c1)C1CC1 (relative stereo) | IL-17A(FLAG-Tagged): IL-17RA(His-Tagged) (Homo sapiens, UniProt Q16552, K93Q) | nM | 1600 |
| CC(C)n1nccc1C(=O)N[C@H](c1cn2ncc([C@H](NC(=O)C[C@](C)(O)C(F)(F)F)C3CC3)cc2n1)C1CCC(F)(F)CC1 (relative stereo) | IL-17A(FLAG-Tagged): IL-17RA(His-Tagged) (Homo sapiens, UniProt Q16552, K93Q) | nM | 150 |
| CC(C)c1oncc1C(=O)N[C@H](c1cn2ncc([C@H](NC(=O)CCC(F)(F)F)C3CC3)cc2n1)C1CCC(F)(F)CC1 [Example 232] | IL-17A(FLAG-Tagged): IL-17RA(His-Tagged) (Homo sapiens, UniProt Q16552, K93Q) | nM | 43 |
| Cc1nonc1C(=O)N[C@H](c1cn2ncc([C@H](NC(=O)CC3CCCC3(F)F)C3CC3)cc2n1)C1CCC(F)(F)CC1 (stereo partly shown) | IL-17A(FLAG-Tagged): IL-17RA(His-Tagged) (Homo sapiens, UniProt Q16552, K93Q) | nM | 370 |
| Cc1nonc1C(=O)N[C@H](c1cn2ncc([C@H](NC(=O)COC(F)F)C3CC3)cc2n1)C1CCC(F)(F)CC1 | IL-17A(FLAG-Tagged): IL-17RA(His-Tagged) (Homo sapiens, UniProt Q16552, K93Q) | nM | 1100 |

a = Cc1nonc1C(=O)N[C@H](c1cn2ncc([C@H](NC(=O)CCCC(F)F)C3CC3)cc2n1)C1CCC(F)(F)CC1
b = CC(C)(C[C@H](NC(=O)c1nonc1C1CC1)c1cn2ncc([C@H](NC(=O)CC3CC(F)(F)C3)C3CC3)cc2n1)C(F)(F)F
c = O=C(N[C@H](c1cn2ncc(CNC(=O)[C@@H]3NCCC[C@H]3C(F)(F)F)cc2n1)C1CCCCC1)c1ccccc1 (relative stereo) [Example 1, hydrochloride]
d = O=C(CCC(F)(F)F)N[C@@H](c1cnn2cc([C@@H](NC(=O)c3cccnc3C3CC3)C3CCC(F)(F)CC3)nc2c1)C1CC1
Q: Order the records, beginning with the lowest IC50 and ending with the highest. Rank the items, then write their labels in that order.
A: b, a, c, d
(b: 52 nM, a: 120 nM, c: 180 nM, d: 500 nM)
